Test: Plasma protein binding in human
Type: ADME, cell-free
Conditions: read-out: PPB (converted)
METRIC: fraction unbound

                                   compound  reported_value
0  N#Cc1ccc(-c2ccc(C3=NOC(c4ccccc4-c4cncnc4)N3c3ccc(N4CCNCC4)cc3)o2)cc1 (stereo in doubt; 38)           0.035

====

Target: MAP kinase-activated protein kinase 2 (Homo sapiens)
Sequence (P49137 whole entry): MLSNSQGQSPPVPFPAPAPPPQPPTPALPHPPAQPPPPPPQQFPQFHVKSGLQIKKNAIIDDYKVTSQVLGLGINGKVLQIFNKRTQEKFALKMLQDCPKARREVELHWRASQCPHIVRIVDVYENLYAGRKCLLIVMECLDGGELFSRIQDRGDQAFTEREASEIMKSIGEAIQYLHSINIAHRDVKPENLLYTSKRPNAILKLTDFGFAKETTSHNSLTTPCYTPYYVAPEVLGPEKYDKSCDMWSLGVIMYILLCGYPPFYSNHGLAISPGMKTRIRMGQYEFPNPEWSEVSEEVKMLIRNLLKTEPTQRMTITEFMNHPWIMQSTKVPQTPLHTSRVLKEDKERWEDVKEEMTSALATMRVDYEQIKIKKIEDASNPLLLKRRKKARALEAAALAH
Test: Inhibition of MK2 in human THP1 cells assessed as inhibition of LPS-induced HSP27 Ser78 phosphorylation incubated for 60 mins prior to LPS-induction measured after 60 mins
pEC50: −log10 of the molar value.
Reported pEC50 by item:
METRIC: pEC50

>>> print(df.to_string())
                                   molecule  metric  reported_value
0  N#Cc1ccc(-c2ccc(C3=NOC(c4ccccc4-c4cncnc4)N3c3ccc(N4CCNCC4)cc3)o2)cc1 (stereo in doubt; 38)   pEC50            6.77
1  Clc1ccc(-c2ccc(C3=NOC(c4ccccn4)N3c3ccc(N4CCNCC4)cc3)o2)cc1 (configuration not stated)   pEC50            5.52
2  Fc1ccc(-c2ccc(C3=NOC(c4ccccc4-c4cncnc4)N3c3ccc(N4CCNCC4)cc3)o2)cc1 (configuration not stated)   pEC50            6.12
3  Clc1ccc(-c2ccc(C3=NOC(c4ccncc4)N3c3ccc(N4CCNCC4)cc3)o2)cc1 (configuration not stated)   pEC50            5.57
4  Clc1ccc(-c2ccc(C3=NOC(c4cnc[nH]4)N3c3ccc(N4CCNCC4)cc3)o2)cc1 (configuration not stated)   pEC50            5.62
5  Fc1ccc(C2ON=C(c3ccc(-c4ccc(Cl)cc4)o3)N2c2ccc(N3CCNCC3)cc2)nc1 (configuration not stated)   pEC50            5.43
6  N#Cc1ccc(-c2ccc(C3=NOC(c4ccccc4-c4cncnc4)N3c3ccc(N4CCNCC4)cc3)o2)cc1 (stereo in doubt; 33)   pEC50            5.92
